Reference for the values: patent US20220088148A1

molecular target: human GCG receptor (human, UniProt P47871 26-477); experiment: cell-based or functional assay
Sequence (P47871 26-477): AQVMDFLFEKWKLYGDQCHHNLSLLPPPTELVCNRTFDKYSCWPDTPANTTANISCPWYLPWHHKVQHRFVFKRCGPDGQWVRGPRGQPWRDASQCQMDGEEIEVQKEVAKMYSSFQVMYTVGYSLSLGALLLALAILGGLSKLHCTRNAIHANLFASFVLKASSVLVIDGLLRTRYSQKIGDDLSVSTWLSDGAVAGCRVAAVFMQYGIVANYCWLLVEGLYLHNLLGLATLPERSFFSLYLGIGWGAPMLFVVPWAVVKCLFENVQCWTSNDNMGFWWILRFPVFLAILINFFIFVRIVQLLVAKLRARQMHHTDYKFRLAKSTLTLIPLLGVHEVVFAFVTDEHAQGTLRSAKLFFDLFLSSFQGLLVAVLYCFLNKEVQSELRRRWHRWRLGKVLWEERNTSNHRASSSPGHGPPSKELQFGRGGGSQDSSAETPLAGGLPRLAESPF
Bridges are numbered along the chain shown (N, C = ends). Where no end group is shown, it is not given here. [ ]: non-standard residue; d: D form. The star is where a group is joined. Acetyl(2-(4-imidazolyl)) = O=C(Cc1c[nH]cn1)*; Aib = CC(C)(N)C(=O)O
Measured Endpoint: In vitro activity (%) vs. Glucagon, cAMP EC50
Write it as a number; the unit % goes unstated.

Example cases with answers are listed next.
Q: // query In vitro activity (%) vs. Glucagon, cAMP EC50 value for entry Y[Aib]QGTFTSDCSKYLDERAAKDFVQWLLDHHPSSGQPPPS (bridge 16-20; ends not checked) [triple agonist of SEQ ID NO: 72]
Ans: 1

Q: Now the binder H[Aib]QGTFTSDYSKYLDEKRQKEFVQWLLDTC (bridge 16-20; ends not checked) [triple agonist of SEQ ID NO: 52]
Ans: 7.5

Q: Now the binder [Acetyl(2-(4-imidazolyl))][Aib]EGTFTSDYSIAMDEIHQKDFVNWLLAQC (bridge 16-20) [triple agonist of SEQ ID NO: 83]
Ans: 1.3

Kindly consider the entry below.
Q: // query In vitro activity (%) vs. Glucagon, cAMP EC50 value for entry H[Aib]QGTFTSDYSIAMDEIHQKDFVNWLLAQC (bridge 16-20) [triple agonist of SEQ ID NO: 55]
Ans: 0.7
